tgt: T1, SUMO*-GFP (engineered SUMO 2F4, Smt3 R64T R71E, fused to GFP)
T1 chain: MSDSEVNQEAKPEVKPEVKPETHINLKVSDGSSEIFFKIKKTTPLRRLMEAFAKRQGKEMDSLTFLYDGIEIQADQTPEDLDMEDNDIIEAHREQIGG

# protein, % Cleavage of SUMO* tag (%)
measured = [
    ("ULP1 mutant 2.3 (residues 451-455: A M I I A) (protein) LVPELNEKDDDQVQKALASRENTQLMNRDNIEITVRDFKTLAPRRWLNAMIIAFFMKYIEKSTPNTVAFNSFFYTNLSERGYQGVRRWMKRKKTQIDKLDKIFTPINLNQSHWALGIIDLKKKTIGYVDSLSNGPNAMSFAILTDLQKYVMEESKHTIGEDFDLIHLDCPQQPNGYDCGIYVCMNTLYGSADAPLDFDYKDAIRMRRFIAHLILTDALK", 10),
    ("ULP1 (wild-type SUMO protease 1) (protein) LVPELNEKDDDQVQKALASRENTQLMNRDNIEITVRDFKTLAPRRWLNDTIIEFFMKYIEKSTPNTVAFNSFFYTNLSERGYQGVRRWMKRKKTQIDKLDKIFTPINLNQSHWALGIIDLKKKTIGYVDSLSNGPNAMSFAILTDLQKYVMEESKHTIGEDFDLIHLDCPQQPNGYDCGIYVCMNTLYGSADAPLDFDYKDAIRMRRFIAHLILTDALK", 0),
    ("SUMO* protease 1 (ULP1 mutant 2.2; D451S, T452G, E455S) (protein) MGLVPELNEKDDDQVQKALASRENTQLMNRDNIEITVRDFKTLAPRRWLNSGIISFFMKYIEKSTPNTVAFNSFFYTNLSERGYQGVRRWMKRKKTQIDKLDKIFTPINLNQSHWALGIIDLKKKTIGYVDSLSNGPNAMSFAILTDLQKYVMEESKHTIGEDFDLIHLDCPQQPNGYDCGIYVCMNTLYGSADAPLDFDYKDAIRMRRFIAHLILTDALKLEHHHHHH", 100),
    ("ULP1 mutant 1.38 (residues 451-455: S T I I A) (protein) LVPELNEKDDDQVQKALASRENTQLMNRDNIEITVRDFKTLAPRRWLNSTIIAFFMKYIEKSTPNTVAFNSFFYTNLSERGYQGVRRWMKRKKTQIDKLDKIFTPINLNQSHWALGIIDLKKKTIGYVDSLSNGPNAMSFAILTDLQKYVMEESKHTIGEDFDLIHLDCPQQPNGYDCGIYVCMNTLYGSADAPLDFDYKDAIRMRRFIAHLILTDALK", 75),
]
